meta.source: patent US11524938B2

target: human P2X4 (Homo sapiens); experiment: Human P2X4 HEK Cell FLIPR Assay; type: cell-based; conditions: HEK293, HEK293 cells, agonist Bz-ATP at EC80; percentage of maximal inhibition; read-out: Human P2X4 HEK Cells (FLIPR Assay) avg Efficacy [%]
Sequence (Q99571 whole entry): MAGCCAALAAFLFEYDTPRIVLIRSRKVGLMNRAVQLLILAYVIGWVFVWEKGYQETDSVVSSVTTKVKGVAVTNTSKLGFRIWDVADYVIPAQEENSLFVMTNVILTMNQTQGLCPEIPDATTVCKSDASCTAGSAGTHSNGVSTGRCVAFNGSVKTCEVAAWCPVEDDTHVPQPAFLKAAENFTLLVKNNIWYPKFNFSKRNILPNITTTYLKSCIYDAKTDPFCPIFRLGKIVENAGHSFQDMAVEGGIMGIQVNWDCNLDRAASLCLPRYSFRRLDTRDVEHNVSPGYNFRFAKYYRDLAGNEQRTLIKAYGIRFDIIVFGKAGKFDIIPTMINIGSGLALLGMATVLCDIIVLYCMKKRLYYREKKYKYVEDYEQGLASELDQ
METRIC: Emax (%)

INSERT INTO assay_data (smiles_structure, metric, value) VALUES
  ('N#Cc1cnn(-c2ccc(NC(=O)Cc3ccccc3Br)cc2S(N)(=O)=O)c1', 'Emax', 89);

a = NS(=O)(=O)c1cc(NC(=O)Cc2cc(Cl)ccc2F)ccc1-c1cnn(C2CC2)c1
b = NS(=O)(=O)c1cc(NC(=O)Cc2ccccc2[N+](=O)[O-])ccc1-n1cc(C(F)(F)F)cn1
Lab note: check whether a or b shows the higher recorded Emax. Return value: the label identifying the chosen record. a
(a: 99%, b: 51%)
